Attribution: patent US6548667B2

Biological target: gelatinase A (MMP-2) (Homo sapiens, UniProt P08253)
Construct: purchased Boehringer Manneheim 1782916; host or cells: human fibrosarcoma cells (natural source)
Sequence (P08253 110-660): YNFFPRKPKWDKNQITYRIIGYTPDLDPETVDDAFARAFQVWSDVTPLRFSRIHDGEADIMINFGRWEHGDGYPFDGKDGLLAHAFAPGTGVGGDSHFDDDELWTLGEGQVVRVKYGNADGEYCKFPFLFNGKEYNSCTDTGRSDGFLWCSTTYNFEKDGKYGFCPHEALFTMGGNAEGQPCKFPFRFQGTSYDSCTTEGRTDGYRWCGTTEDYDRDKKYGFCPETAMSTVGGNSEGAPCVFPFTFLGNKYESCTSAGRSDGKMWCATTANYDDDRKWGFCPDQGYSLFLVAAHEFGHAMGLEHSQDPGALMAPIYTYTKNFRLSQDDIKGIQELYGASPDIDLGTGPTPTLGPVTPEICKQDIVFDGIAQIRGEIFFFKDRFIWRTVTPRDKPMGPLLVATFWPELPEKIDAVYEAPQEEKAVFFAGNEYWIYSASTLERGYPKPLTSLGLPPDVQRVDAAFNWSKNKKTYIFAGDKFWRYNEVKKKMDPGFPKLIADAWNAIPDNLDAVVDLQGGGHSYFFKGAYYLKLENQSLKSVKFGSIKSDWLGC
Assay: In vitro inhibition on gelatinase A (MMP-2), fluorescent synthetic peptide substrate
Format: biochemical
Settings: Table 1
Record form. Attribute: IC50. Fill in for each entry.
Give bare numbers, in nM.

CC(C)[C@@H](NS(=O)(=O)c1ccc2nc(SCc3ccc(Cl)cc3)sc2c1)C(=O)NO 0.2
CCCCc1ccc(Sc2nc3ccc(S(=O)(=O)N[C@@H](C(=O)O)C(C)C)cc3s2)cc1 120
CCCCCCCCSc1nc2ccc(S(=O)(=O)N[C@@H](C(=O)O)C(C)C)cc2s1 9

Below: the item to evaluate.
Param readout= IC50; system= gelatinase A (MMP-2) (Homo sapiens, UniProt P08253); entry= `CCCCCCCCCCCCSc1nc2ccc(S(=O)(=O)N[C@@H](C(=O)O)C(C)C)cc2s1` ; returns value.
170
